For each entry below, report its Response (10 μM (%)) value.
- subject-of-test: OX2R (Homo sapiens, UniProt O43614)
- Construct: expressed in transfected cells; host or cells: CHO (Chinese hamster ovary) cells constitutively expressing the OX2R gene and NFAT-luciferase (CHOOX2R)
- Sequence (O43614 1-444): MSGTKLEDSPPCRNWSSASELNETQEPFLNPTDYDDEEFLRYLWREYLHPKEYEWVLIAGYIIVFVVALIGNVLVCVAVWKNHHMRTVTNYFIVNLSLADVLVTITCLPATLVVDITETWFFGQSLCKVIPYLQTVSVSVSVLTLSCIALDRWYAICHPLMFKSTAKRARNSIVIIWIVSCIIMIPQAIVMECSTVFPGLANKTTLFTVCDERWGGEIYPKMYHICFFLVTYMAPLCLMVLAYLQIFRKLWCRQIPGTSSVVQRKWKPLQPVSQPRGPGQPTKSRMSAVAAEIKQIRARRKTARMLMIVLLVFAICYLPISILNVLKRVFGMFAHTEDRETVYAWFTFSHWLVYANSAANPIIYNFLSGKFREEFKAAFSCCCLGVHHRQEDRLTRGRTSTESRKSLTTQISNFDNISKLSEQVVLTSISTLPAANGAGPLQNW
- method-notes: Evaluation of agonist activity against OX2R (CHOOX2R cells, Fura2AM fluorescence, FDSS3000)
- Format: cell-based
- experimental-setup: test compound 10 μM; CHOOX2R cells; relative to orexin-A as full agonist (100%)
Give bare numbers, in %.

Study these solved cases before continuing.
mol: COc1ccc(-c2cccc(C(=O)N(C)C)c2)cc1S(=O)(=O)Nc1cccc(NCCNC(=O)c2ccccc2Cl)c1
value-measured: 114
//
mol: CNC(=O)c1cccc(-c2ccc(OC)c(S(=O)(=O)Nc3cccc(NCCNC(=O)c4ccccc4OC)c3)c2)c1
value-measured: 98
//
mol: COc1ccccc1C(=O)NCCNc1cccc(NS(=O)(=O)c2cc(-c3cccc(C(=O)N4CCC4)c3)ccc2OC)c1
value-measured: 98
//
mol: COc1ccc(-c2cccc(C(=O)N3CCCCC3)c2)cc1S(=O)(=O)Nc1cccc(NCCNC(=O)c2ccccc2F)c1
value-measured: 88

Parameter requested: Response (10 μM (%)). Apply to each item below.
1. COc1cccc(C(=O)NCCNc2cccc(NS(=O)(=O)c3cc(-c4cccc(C(=O)N5CCC5)c4)ccc3OC)c2)n1
2. COc1ccccc1C(=O)NCCNc1cccc(NS(=O)(=O)c2cc(-c3cccnc3)ccc2OC)c1
3. COc1cccc(C(=O)NCCNc2cccc(NS(=O)(=O)c3cc(-c4cccc(C(=O)N5CCCC5)c4)ccc3OC)c2)c1
4. COc1ccc(-c2cccc(C(=O)N3CCCC3)c2)cc1S(=O)(=O)Nc1cccc(NCCNC(=O)c2sccc2Cl)c1
5. COc1ccc(-c2cccc(C(=O)N(C)C)c2)cc1S(=O)(=O)Nc1cccc(NCCNC(=O)c2occc2C)c1

(A)
71
88
81
97
74

---

For each entry below, report its EC50 value.
- subject-of-test: OX2R (Homo sapiens, UniProt O43614)
- Construct: expressed in transfected cells; host or cells: CHO (Chinese hamster ovary) cells constitutively expressing the OX2R gene and NFAT-luciferase (CHOOX2R)
- Sequence (O43614 1-444): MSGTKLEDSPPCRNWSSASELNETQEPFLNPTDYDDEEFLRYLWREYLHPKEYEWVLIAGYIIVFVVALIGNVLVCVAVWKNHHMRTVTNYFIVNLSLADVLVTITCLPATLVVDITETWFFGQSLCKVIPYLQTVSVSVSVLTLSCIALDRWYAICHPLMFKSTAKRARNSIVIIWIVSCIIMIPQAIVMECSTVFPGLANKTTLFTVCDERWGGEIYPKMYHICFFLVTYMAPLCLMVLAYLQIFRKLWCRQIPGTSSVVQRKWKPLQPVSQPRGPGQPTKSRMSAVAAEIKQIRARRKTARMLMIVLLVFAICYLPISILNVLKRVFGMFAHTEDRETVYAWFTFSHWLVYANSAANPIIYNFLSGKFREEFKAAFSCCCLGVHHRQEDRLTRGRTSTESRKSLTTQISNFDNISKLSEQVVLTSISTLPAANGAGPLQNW
- method-notes: Evaluation of agonist activity against OX2R (CHOOX2R cells, Fura2AM fluorescence, FDSS3000)
- Format: cell-based
- experimental-setup: OX2R agonist activity; CHOOX2R cells
One number for each entry, in µM.

Study these solved cases before continuing.
mol: COc1ccc(-c2cccc(C(=O)N(C)C)c2)cc1S(=O)(=O)Nc1cccc(NCCNC(=O)c2cc(F)ccc2F)c1
value-measured: 1.15
//
mol: COc1ccc(-c2cccc(C(=O)N(C)C)c2)cc1S(=O)(=O)Nc1cccc(NCCNC(=O)c2c(F)cccc2F)c1
value-measured: 0.115

(Q) Value wanted: EC50 (OX2R (Homo sapiens, UniProt O43614)) of entry "COc1ccc(-c2cccc(C(=O)N(C)C)c2)cc1S(=O)(=O)Nc1cccc(NCCNC(=O)c2ncccc2Cl)c1"
(A) 3.28

The measured values listed here are drawn from patent US9815787B2.
